molecular target: ZADH2 (UniProt Q8N4Q0); assay: log2 fold change, soluble protein after heating vs DMSO (PISA); higher = thermal stabilisation; K562 cells, 10 uM, 30 min; active = over 0.2 and 3.5 SD of the protein, either way, in both replicates (recomputed)
Sequence (Q8N4Q0 whole entry, looked up): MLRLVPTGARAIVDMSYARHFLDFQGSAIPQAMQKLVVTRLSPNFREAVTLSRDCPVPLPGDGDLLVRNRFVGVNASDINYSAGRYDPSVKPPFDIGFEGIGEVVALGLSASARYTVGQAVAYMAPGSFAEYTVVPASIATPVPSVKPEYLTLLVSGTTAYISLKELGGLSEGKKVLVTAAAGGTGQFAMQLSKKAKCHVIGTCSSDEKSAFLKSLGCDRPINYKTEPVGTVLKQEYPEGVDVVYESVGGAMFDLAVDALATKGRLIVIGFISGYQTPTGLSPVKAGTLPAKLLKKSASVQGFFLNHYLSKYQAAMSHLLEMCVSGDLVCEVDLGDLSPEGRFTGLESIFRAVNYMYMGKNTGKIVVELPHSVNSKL
Targets with a hit are over-represented here; the source holds about 7,900 in all. About 0.6% of all pairs of compound and target were hits.
This section presents compounds with their documented log2 fold change values.

Please review the following examples before continuing.
Cc1cc(SCc2sc(-c3ccc(C(F)(F)F)cc3)nc2C)ccc1OCC(=O)O: -0.027 (inactive)
CNC(=O)c1ccc(Nc2ncc(C(F)(F)F)c(NCc3nccnc3N(C)S(C)(=O)=O)n2)cc1: 0.025 (inactive)
CCCCN(Cc1ccc(C(=O)NO)cc1)C(=O)Nc1ccccc1: 0.005 (inactive)
CS(=O)(=O)c1ccc(-c2cnc(N)c(C(=O)Nc3ccccc3)n2)cc1: -0.063 (inactive)

Qu. Requested field: log2 fold change. Item: `Cc1cccc(CC(=O)N2CCc3c2ccc(-c2cn(C)c4ncnc(N)c24)c3F)n1`
Ans. -0.041 (inactive)

Qu. For the compound shown here, `O=C(Nc1nc2ccccc2n1CCN1CCOCC1)c1cccc([N+](=O)[O-])c1` , give the reported log2 fold change.
Ans. 0.036 (inactive)

###

target: YAE1 (UniProt Q9NRH1); assay: log2 fold change, soluble protein after heating vs DMSO (PISA); higher = thermal stabilisation; K562 cells, 10 uM, 30 min; active = over 0.2 and 3.5 SD of the protein, either way, in both replicates (recomputed)
Sequence (Q9NRH1 whole entry, looked up): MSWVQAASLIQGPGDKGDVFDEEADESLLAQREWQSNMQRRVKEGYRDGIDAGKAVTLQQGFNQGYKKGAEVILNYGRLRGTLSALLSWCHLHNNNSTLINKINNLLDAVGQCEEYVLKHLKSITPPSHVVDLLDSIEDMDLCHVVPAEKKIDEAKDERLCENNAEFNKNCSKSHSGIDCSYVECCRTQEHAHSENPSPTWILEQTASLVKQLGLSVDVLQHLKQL
About 7,900 targets were measured; listed, in parts, are those with a hit and a random draw of the rest. About 0.6% of all pairs of compound and target were hits.
REPORTED_PROPERTY: log2 fold change
The response must contain the number and no unit.

Examples with answers:
CN1CCN(c2nc(C3=C(c4c[nH]c5ccccc45)C(=O)NC3=O)c3ccccc3n2)CC1 [sotrastaurin]: 0.074
CC(C)C[C@@H](C=O)NC(=O)[C@H](CC(C)C)NC(=O)[C@H](CC(C)C)NC(=O)OCc1ccccc1: 0.007
Cc1cccc(-c2[nH]c(C(C)(C)C)nc2-c2ccc3nccnc3c2)n1: 0.019

Here is another compound to look at.
Qu. # input compound: COC(=O)N[C@@H](C)CNc1nccc(-c2cn(C(C)C)nc2-c2cc(Cl)cc(NS(C)(=O)=O)c2F)n1 [encorafenib] ; wanted: its log2 fold change
Ans. 0.007
